RUN_DESCRIPTION: Lethality of zebrafish embryos at 96 hpf
Format: in vivo, zebrafish (D. rerio)
TEST_PARAMETERS: OBI/WIK wild-type, zebrafish, in vivo, other: immersion of embryos in exposure media, 24–96 hpf exposure; ± 95% confidence intervals
VALUE_TYPE: LC50 (nM)

- Cc1cc(C)c(/C=C2\C(=O)Nc3ccccc32)[nH]1: 1930

###

System: zebrafish embryos, transgenic line Tg(kdr:EGFP)
RUN_DESCRIPTION: Number of ISVs by fluorescence imaging in Tg(kdr:EGFP) zebrafish embryos
Type: in vivo, zebrafish (D. rerio)
TEST_PARAMETERS: exposure 24–96 hpf, 0.31–10 µM, read-out: EC50 number of ISVs, fluorescent image
VALUE_TYPE: EC50

- CN(C)c1ccc(C=C2C(=O)Nc3ccccc32)cc1 [SU4312]: > 10 µM

###

System: zebrafish embryos (wild-type strain OBI/WIK)
RUN_DESCRIPTION: ISV inhibition (angiogenesis) by video subtraction in wildtype zebrafish embryos
Format: in vivo, zebrafish (D. rerio)
TEST_PARAMETERS: 24–96 hpf exposure; ± 95% confidence intervals; read-out: IC50 of ISV inhibition
pIC50: −log10 of the molar value.
VALUE_TYPE: pIC50

- CN(C)c1ccc(C=C2C(=O)Nc3ccccc32)cc1: 5.59

###

System: zebrafish embryos (wild-type strain OBI/WIK)
RUN_DESCRIPTION: Lethality of zebrafish embryos at 96 hpf
Format: in vivo, zebrafish (D. rerio)
TEST_PARAMETERS: embryos exposed from 24 hpf, compared to exposure from 3 hpf
VALUE_TYPE: Mortality (in words)

* Clc1ccc(Nc2nnc(Cc3ccncc3)c3ccccc23)cc1 [PTK787] | no
* CNC(=O)c1cc(Oc2ccc(NC(=O)Nc3ccc(Cl)c(C(F)(F)F)c3)cc2)ccn1 [Sorafenib] | no
* CN(C)c1ccc(C=C2C(=O)Nc3ccccc32)cc1 [SU4312] | no

Where these numbers come from: paper PMC10794345
